Test system: P. falciparum 3D7 gametocytes
measurement_protocol: alamarBlue gametocyte viability assay, strain 3D7
Assay type: cell-based, Plasmodium falciparum
experimental_context: Malaria Box; DMSO set at 0%, 100 nM epoxomicin set at -100%
Consider the cut-off -80%. If the recorded Max Resp is strictly smaller, the label is fulfilled; if not, the label is not fulfilled.

Reference set (2 entries):
Query :: Record c1ccc2c(NCCc3c[nH]c4ccccc34)c3ccccc3nc2c1 : is its Max Resp strictly below -80%?
Result :: fulfilled

Query :: Record COc1nc(Nc2ccc(C(C)C)cc2)nc(OC)n1 : is its Max Resp strictly below -80%?
Result :: not fulfilled

Others:
Query :: Record CC1CCCCN1CCCNC(=O)c1ccc2c(c1)sc1nc(-c3ccc(F)cc3)cn12 (centres unmarked) : is its Max Resp strictly below -80%?
Result :: fulfilled

Query :: Record CCCCCn1c(=N)n(CC(O)COc2cccc(C)c2)c2ccccc21.Cl (centres unmarked) : is its Max Resp strictly below -80%?
Result :: fulfilled

Query :: Record Cc1cc(N2CCN(C3CCCC3)CC2)n2c(nc3ccccc32)c1C#N : is its Max Resp strictly below -80%?
Result :: not fulfilled

Source: paper PMC3894558
